All figures here come from the supplement of paper PMC10567573.

B1: MFF (parent)
chain: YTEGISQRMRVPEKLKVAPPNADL

# Variants of: B1
# test name: protein stability index of a GFP-peptide fusion (GPS, HEK-293T) (PSI 1-6); higher = more stable;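 note: lentivirally expressed fusions sorted by FACS into six bins by GFP to DsRed ratio, PSI derived from sequencing read proportions per bin multiplied by bin number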
# experimental setup: c terminus: a fixed tail appended
attribute measured: protein stability index
Numbers only.

mutation code	protein stability index
A18I	3.15
V11D	2.75
Y1P	4.64
P19K	2.71
N21L	2.09

Your task in this section: give protein stability index for each listed record.
1. R10D
2. Q7L
3. K16N
4. I5P
5. E13L
6. Y1F
7. Y1T

OUTPUT:
[2.71, 2.77, 3.33, 4.33, 2.33, 2.52, 4.31]

Dear colleague, could you send me protein stability index for each of the items below? Thanks.
1. M9K
2. E3D
3. Q7S
4. P20A
5. E3I

OUTPUT:
1: 3.37; 2: 3.24; 3: 2.45; 4: 2.98; 5: 2.42

Your task in this section: give protein stability index for each listed record.
1. P20N
2. P19S
3. K16V
4. V17Q
5. S6W

OUTPUT:
[3.12, 2.62, 2.9, 2.95, 2.52]
